Reference source: patent US20240408169A1

Recorded pIC50 by entry
- test-system: CyclinB1/CDK1 (Homo sapiens)
- Construct: purchased Eurofins, discovery 14-450
- assay-remarks: Fluorescence Polarization (FP) competitive binding assay, Cyclin B1/Cdk1;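 further: fluorescence polarization read after equilibration at room temperature, with IC50 taken from serially diluted dose-response curves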
- reported-conditions: 10 nM Cyclin B1/Cdk1, 2 nM FAM probe; average of 2-3 independent experiments; read-out: Cyclin B FP IC50
*1 amine or outer side, *2 acyl side, *3 side chain or, on linkers, in order; H or OH if unused. Where a SMILES comes first, the peptide text is derived from it. Bridges are numbered along the chain shown (N, C = ends). [ ]: non-standard residue; d: D form. The star is where a group is joined. X116 = CN([C@@H](Cc1cc(Cl)ccc1-c1cnc2c(c1)ncn2C)C(=O)[*:2])[*:1]; NMehhhLys(Me) = CN([C@@H](CCCCCCCN(C)[*:3])C(=O)[*:2])[*:1]; X64 = CN([C@@H](Cc1cc(Cl)ccc1OC1(C)CC1)C(=O)[*:2])[*:1]; cBuCO(3,3-F2-1-CF3) = O=C(C1(C(F)(F)F)CC(F)(F)C1)*; Pro(trans-4-F) = O=C(O)[C@@H]1C[C@@H](F)CN1; Gly(cPr) = N[C@H](C(=O)O)C1CC1
For clarity, pIC50 is expressed as the negative log10 of concentration in mol/L.

Examples with answers:
CC(C)C[C@@H]1NC(=O)[C@@H](N(C)C(=O)[C@@H](NC(=O)[C@@H]2C[C@@H](F)CN2C(=O)C2(C(F)(F)F)CC(F)(F)C2)C2CC2)CCCCCCCN(C)C(=O)[C@H](Cc2cc(Cl)ccc2-c2cnc3c(c2)ncn3C)N(C)C1=O [Example 177] ({cBuCO(3,3-F2-1-CF3)}-[Pro(trans-4-F)][Gly(cPr)][NMehhhLys(Me)]L[X116]; lactam 3-C): 7.70
CC(C)C[C@@H]1NC(=O)[C@@H](N(C)C(=O)[C@@H](NC(=O)[C@@H]2C[C@@H](F)CN2C(=O)C2(C(F)(F)F)CC(F)(F)C2)C2CC2)CCCCCCCN(C)C(=O)[C@H](Cc2cc(Cl)ccc2OC2(C)CC2)N(C)C1=O [Example 259] ({cBuCO(3,3-F2-1-CF3)}-[Pro(trans-4-F)][Gly(cPr)][NMehhhLys(Me)]L[X64]; lactam 3-C): 7.70

Proceeding to the next compound to report its pIC50.
q: Give its pIC50 value. Item: Cc1nnc(-c2ccc(Cl)cc2C[C@H]2C(=O)N(C)CCCCC=CC[C@H](N(C)C(=O)[C@@H](NC(=O)[C@@H]3C[C@@H](F)CN3C(=O)C3(C(F)(F)F)CC(F)(F)C3)C3CC3)C(=O)N[C@@H](CC(C)C)C(=O)N2C)o1
a: 7.70
